Experiment: Quantitative high throughput screen for delayed death inhibitors of the malarial parasite plastid, 96 hour incubation (AID 488745);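 further: luciferase-expressing P. falciparum in erythrocytes at 2% hematocrit and 0.1% parasitemia; on the % scale 0 is the no-effect control and ±100 the full control effect; nearly all actives have a fitted effect of over 70% in size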
Details: Plasmodium falciparum growth; series mostly up to 28.7 µM
Records with an inconclusive call do not appear. Active and inactive are the calls of the source. The call rests on the fitted dose curve; in most records, active means well fitted inhibition curve with a large enough effect; inconclusive means small, poorly fitted or top-dose-only effect, or effect the other way; inactive means no such curve, though single readings can be large or run the other way.
Could you please pick one outcome from this set? true (1) for active, false (0) for inactive

Field: outcome | Entry: COc1ccc2[nH]cc(CCN(C)C)c2c1
false (0)

---
Record request — test call for COc1cc(CCN)ccc1O
false (0)

Returns: the outcome recorded for N[C@@H](Cn1cc(I)c(=O)[nH]c1=O)C(=O)O in this assay.
false (0)

###

Assay: High Content Imaging Cell-Based qHTS for Inhibitors of the mTORC1 Signaling Pathway in MEF Cells (AID 2667)
Settings: series mostly up to 38.3 µM
Results filed as inconclusive are left out. Activity calls are given as the source filed them. The call rests on the fitted dose curve; in most records, active means well fitted inhibition curve with a large enough effect; inconclusive means small, poorly fitted or top-dose-only effect, or effect the other way; inactive means no such curve, though single readings can be large or run the other way.
The reply should name one outcome from active, inactive

# outcome recorded in this test, key = CN1C2CCC1CC(OC(=O)C(CO)c1ccccc1)C2 (stereo not given)
inactive

Hello, I am checking results. What call was entered for CC12C(=O)OC(=O)C1(C)C1CCC2O1 (stereo not given) ?
active

What outcome does the record of this test show for O=c1oc(Cl)c(Cl)c2ccccc12 ?
active

Further cases:
Check the results log: what was the call for O=[N+]([O-])c1ccc(O[C@@H]2O[C@H](CO)[C@@H](O)[C@H](O)[C@H]2F)c([N+](=O)[O-])c1 ?
inactive

GET /call?item= OC1(c2ccc(Cl)cc2)CCN(Cc2c[nH]c3ccccc23)CC1 returns the recorded outcome of this test.
active

###

Assay: qHTS Assay for Lipid Storage Modulators (AID 1519); further: on the % scale 0 is the no-effect control and ±100 the full control effect
Details: Drosophila S3 cells, BODIPY lipid droplet/cell ratio, laser cytometry; at 57.5 µM (top of the series); cells loaded with oleic acid
Results filed as inconclusive are left out.
MEASURE: activity change, negative = inhibition (%)
Give bare numbers, in %.

Here are 2 compounds. What values of activity change, negative = inhibition were reported for them?
1. C[N+]1(C)CCc2cc3c(cc2C1C1OC(=O)c2c1ccc1c2OCO1)OCO3 (stereo unspecified)
2. C/C=C1/CN2CC[C@]34C(=C(C=O)[C@H]1C[C@@H]23)Nc1ccccc14

2.12
-2.11

###

Molecular target: Nucleoprotein (Lymphocytic choriomeningitis virus (strain Armstrong)) (UniProt P09992)
Sequence (P09992 whole entry, looked up): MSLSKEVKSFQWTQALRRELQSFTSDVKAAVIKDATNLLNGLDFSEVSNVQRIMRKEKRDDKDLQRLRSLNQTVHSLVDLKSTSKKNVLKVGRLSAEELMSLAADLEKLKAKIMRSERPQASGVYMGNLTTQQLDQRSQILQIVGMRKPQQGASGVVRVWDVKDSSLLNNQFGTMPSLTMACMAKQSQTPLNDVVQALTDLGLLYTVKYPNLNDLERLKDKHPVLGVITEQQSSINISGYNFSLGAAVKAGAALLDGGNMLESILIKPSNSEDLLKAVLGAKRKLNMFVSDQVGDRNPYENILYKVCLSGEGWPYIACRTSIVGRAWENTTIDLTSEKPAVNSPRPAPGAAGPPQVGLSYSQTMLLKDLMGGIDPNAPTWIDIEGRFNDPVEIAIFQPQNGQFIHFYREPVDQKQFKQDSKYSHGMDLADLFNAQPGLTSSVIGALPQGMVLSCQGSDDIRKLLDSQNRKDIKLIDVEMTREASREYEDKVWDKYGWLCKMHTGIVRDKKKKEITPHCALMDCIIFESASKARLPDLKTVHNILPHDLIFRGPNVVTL
Assay: qHTS for Inhibitors of the Functional Ribonucleoprotein Complex (vRNP) of Lymphocytic Choriomeningitis Arenaviruses (LCMV): LCMV Primary Screen - GLuc reporter signal (AID 1347086); further: nearly all actives have a fitted effect of over 70% in size
Conditions: LCMV minigenome vRNP cell assay, Gaussia luciferase reporter; series mostly up to 57.5 µM
Inconclusive results are not listed. Activity calls are given as the source filed them. Calls follow the shape of the full dose curve.
Respond only with the outcome that fits, drawn from active, inactive

Previously resolved entries follow.
Outcome logged for Cc1ccc(C(C)(C)O)cc1 in this assay:
inactive

What classification did CC(N)(C(=O)O)c1ccc(C(=O)O)cc1 (stereo not given) end up with in this test?
inactive

Hi team, can someone confirm the assay call for COc1cc(C(O)CO)ccc1OS(=O)(=O)O (stereo not given) ?
inactive

Query: recorded result category for CC(C)c1cc(C(C)C)c(CC(=O)NS(=O)(=O)Oc2c(C(C)C)cccc2C(C)C)c(C(C)C)c1 in this test
inactive

Which result was noted for this compound in the test: CN=c1nc(-c2ccccc2)n(-c2ccccc2)s1
inactive

Hi team, can someone confirm the assay call for O=C1NC(c2cccc([N+](=O)[O-])c2)=CCN1c1ccccc1O ?
inactive

Outcome? CCC[C@H](Nc1nc(-c2ccc(NC(=O)NCC)c(OC)c2)ncc1C)c1cccnc1
active

Per the assay record, what outcome was assigned to COc1cc(C)c(C(=O)Oc2cc(C)c(C(=O)O)c(O)c2C)c(O)c1C(=O)O ?
inactive

# outcome recorded in this test, key = COc1cc(/C=C/c2ccc(O)cc2)cc(OC)c1
inactive

Please examine the following record next.
What classification did C=C(C)[C@]12C[C@@H](C)[C@@]34O[C@](Cc5ccccc5)(O[C@@H]1[C@@H]3C=C(COC(=O)Cc1ccc(O)c(OC)c1)C[C@]1(O)C(=O)C(C)=C[C@@H]41)O2 end up with in this test?
inactive

###

Target: Nucleoprotein (Lymphocytic choriomeningitis virus (strain Armstrong))
Experiment: qHTS for Inhibitors of the Functional Ribonucleoprotein Complex (vRNP) of Lymphocytic Choriomeningitis Arenaviruses (LCMV): LCMV Primary Screen - GLuc reporter signal (AID 1347086); further: nearly all actives have a fitted effect of over 70% in size
Conditions: LCMV minigenome vRNP cell assay, Gaussia luciferase reporter; series mostly up to 57.5 µM
Records with an inconclusive call do not appear. The source made the active and inactive calls. Calls come from the whole dose curve.
The reply should be one of these categories: active, inactive

Some solved cases for reference:
# lookup: test call for CC(C)(C)Cn1c(N)nc2ccc(-c3[nH]c(C(C)(C)C)nc3-c3ccc(F)cc3)nc21
inactive

Could you please tell me the result logged for CCCC(C)C(O)CC (configuration not stated) in this assay?
inactive

Test call for this molecule, please: COc1ccc(-c2cc(=O)c3c(O)c(OC)c(OC)cc3o2)cc1O
inactive

Shift focus to the following entry.
I'd appreciate the recorded outcome for COc1ccc(COC(C)=O)cc1 from this test.
inactive

###

Tested on: NIH3T3
Assay: Cytotoxic Profiling of Annotated Libraries Using Quantitative High-Throughput Screening (AID 1296008); further: nearly all actives have a fitted effect of over 60% in size
Settings: Five cell lines viability, CellTiter-Glo ATP luminescence, 48-72 h
Results filed as inconclusive are left out. Calls of active or inactive are those of the source. The call rests on the fitted dose curve; in most records, active means well fitted inhibition curve with a large enough effect; inconclusive means small, poorly fitted or top-dose-only effect; inactive means flat fitted curve, though single readings scatter.
Respond only with the outcome that fits, drawn from Y (active), N (inactive)

Completed entries (count: 3):
Which outcome was assigned to C[C@@]1(CO)[C@H](O)CC[C@@]2(C)[C@H]1CC[C@H]1C[C@@H]3C[C@@]12CC[C@]3(O)CO in this test?
Y

Hello, I am checking results. What call was entered for C=C(C)C(=O)O[C@H]1[C@@H]2[C@H](C)C(=O)O[C@@H]2C[C@@H](C)[C@@H]2C=CC(=O)[C@]21C ?
Y

Look up the recorded call for C[C@H]1CCC[C@H](O)CCC/C=C/c2cc(O)cc(O)c2C(=O)O1 in this test.
N

Shift focus to the following entry.
Per the records of this test, what outcome belongs to CN(C)[C@@H]1C(=O)C(C(N)=O)=C(O)[C@@]2(O)C(=O)C3=C(O)c4c(O)ccc(Cl)c4[C@@](C)(O)C3C[C@@H]12 (some centres undefined) ?
N

###

Assay: qHTS assay for small molecule disruptors of the mitochondrial membrane potential - 5 hr assay (AID 651755); further: nearly all actives have a fitted effect of over 40% in size
Conditions: JC-1-type ratio dye; series mostly up to 92.2 µM
Records with an inconclusive call do not appear. The source made the active and inactive calls. Calls follow the shape of the full dose curve.
# output must be one of active, inactive

These recorded examples may help you get a feel for the data.
What did the test return for c1ccc2c(c1)-c1cccc3cccc-2c13 ?
inactive

Dear colleague, could you share the recorded outcome for Oc1c(Cl)c(Cl)c(Cl)c(Cl)c1Cl when you have a moment?
active

Record request — test call for c1ccc(Nc2ccc3ccccc3c2)cc1
active

Further cases:
Status in this test for Oc1ccccc1Cl ?
inactive

What did the test return for Cc1ccccc1O ?
inactive

Record request — test call for O=Cc1ccccc1
inactive

Could you kindly confirm the outcome this assay logged for CC(C)COC(=O)c1ccccc1C(=O)OCC(C)C ?
inactive

What classification did CCOC(=O)c1ccccc1N end up with in this test?
inactive

###

Tested on: HeLa
Test: Primary qHTS to identify gynecologic anti-cancer compounds using libraries of approved drugs and bioactive compounds (AID 1345084); further: nearly all actives have a fitted effect of over 55% in size
Details: Gynecologic cancer cell panel viability, ATPlite luminescence, 48 h; series mostly up to 57.5 µM
Inconclusive results are not listed. The source made the active and inactive calls. The call rests on the fitted dose curve; in most records, active means well fitted cell-killing curve with a large enough effect; inconclusive means small, poorly fitted or top-dose-only effect, or effect the other way; inactive means flat fitted curve, though single readings scatter.
Valid outcomes are listed here; reply with one: active, inactive

Completed entries (count: 5):
Query: recorded result category for CC1=CC2/C=C(\C)CCC(O)C(O)C(O)CC(=O)C23C(=O)NC(CC(C)C)C3C1C (configuration not stated) in this test
inactive

Test call, this molecule: C[C@]12CC[C@H](O)C[C@@H]1CC[C@@H]1[C@@H]2CC[C@]2(C)C(=O)CC[C@@H]12
inactive

Which outcome was assigned to C=C1C(=O)CC2OC2(C)CC2OC(=O)C(=C)C2C(O)C1OC(=O)/C(C)=C\C (configuration not stated) in this test?
inactive

Answer briefly: the call reported for O=C(C[C@@H]1NCCC[C@H]1O)Cn1cnc2ccccc2c1=O in this assay.
active

Kindly provide the recorded test outcome for the following molecule: C[C@@H]1O[C@@H](O[C@H]2CC[C@@]3(C)C(CC[C@@H]4C3CC[C@]3(C)[C@@H](C5=CC(=O)OC5)CC[C@]43O)C2)[C@H](O[C@@H]2O[C@H](CO)[C@@H](O)[C@H](O)[C@H]2O)[C@H](O)[C@H]1O (some centres not stated)
active

Continuing:
Hey, what did the test say about NC(=O)c1ncn2c1CN=C(c1ccccc1Br)c1cc(F)ccc1-2 ?
inactive

Give the logged outcome of this assay for the following molecule: C=C(C)[C@@H]1[C@H]2OC(=O)[C@H]1[C@]1(O)C[C@H]3O[C@]34C(=O)O[C@H]2[C@]14C
inactive

Hey, what did the test say about CC(=O)O[C@H]1C[C@@H](C)O[C@H]2O[C@@H]3CC4CC[C@@H]5C(CC[C@]6(C)[C@@H](C7=CC(=O)OC7)CC[C@]56O)[C@@]4(C=O)C[C@H]3O[C@]21O (some centres not stated) ?
active

Outcome logged for Cc1c(N[C@@H](c2nnc(-c3ccc(C#N)cc3)o2)[C@H](C)O)ccc(C#N)c1Cl in this assay:
inactive

How did this test come out for C[N@@+]1(CC2CC2)CC[C@]23c4c5ccc(O)c4O[C@H]2C(=O)CC[C@@]3(O)[C@H]1C5 ?
inactive
